target: hnRNPA1;RPA-E240K heterotrimer (human;human, UniProt P09651;P27694;P15927;P35244 1-372;1-616;1-270;1-121, |E240K); assay: bulk FRET
Sequence (P09651 whole entry, chain 1 of 4): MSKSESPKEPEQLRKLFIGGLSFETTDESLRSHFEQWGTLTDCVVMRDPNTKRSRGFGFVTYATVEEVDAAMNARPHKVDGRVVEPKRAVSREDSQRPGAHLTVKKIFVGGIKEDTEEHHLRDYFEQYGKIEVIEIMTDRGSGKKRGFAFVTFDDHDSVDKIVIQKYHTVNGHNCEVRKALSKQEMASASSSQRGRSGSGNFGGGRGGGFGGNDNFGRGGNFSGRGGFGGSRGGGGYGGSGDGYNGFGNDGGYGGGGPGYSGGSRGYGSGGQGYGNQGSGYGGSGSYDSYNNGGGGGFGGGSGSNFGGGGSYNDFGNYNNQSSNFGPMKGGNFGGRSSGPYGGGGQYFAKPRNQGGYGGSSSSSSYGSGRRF
Sequence (P27694 whole entry E240K, chain 2 of 4): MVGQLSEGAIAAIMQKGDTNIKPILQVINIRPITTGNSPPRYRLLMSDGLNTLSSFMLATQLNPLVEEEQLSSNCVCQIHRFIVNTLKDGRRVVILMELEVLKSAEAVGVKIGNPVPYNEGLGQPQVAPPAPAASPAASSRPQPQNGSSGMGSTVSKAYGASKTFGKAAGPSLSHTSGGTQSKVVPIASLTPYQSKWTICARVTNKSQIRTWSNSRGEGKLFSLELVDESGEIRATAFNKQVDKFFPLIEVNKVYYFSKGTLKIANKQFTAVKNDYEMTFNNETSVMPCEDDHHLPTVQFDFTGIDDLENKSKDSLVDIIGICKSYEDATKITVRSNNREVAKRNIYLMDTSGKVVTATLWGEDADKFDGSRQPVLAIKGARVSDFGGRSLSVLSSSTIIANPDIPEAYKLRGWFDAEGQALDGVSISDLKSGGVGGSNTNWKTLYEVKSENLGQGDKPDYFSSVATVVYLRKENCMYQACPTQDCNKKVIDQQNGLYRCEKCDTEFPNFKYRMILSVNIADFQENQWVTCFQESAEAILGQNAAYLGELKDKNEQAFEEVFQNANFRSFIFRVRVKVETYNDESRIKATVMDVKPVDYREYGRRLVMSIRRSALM
Sequence (P15927 whole entry, chain 3 of 4): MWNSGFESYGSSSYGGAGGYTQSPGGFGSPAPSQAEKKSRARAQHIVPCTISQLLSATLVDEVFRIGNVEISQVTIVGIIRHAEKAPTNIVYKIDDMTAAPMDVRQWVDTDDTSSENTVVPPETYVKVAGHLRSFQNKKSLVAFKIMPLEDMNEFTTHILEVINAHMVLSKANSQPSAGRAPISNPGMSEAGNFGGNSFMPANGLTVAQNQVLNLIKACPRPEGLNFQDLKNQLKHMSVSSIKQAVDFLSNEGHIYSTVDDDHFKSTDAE
Sequence (P35244 whole entry, chain 4 of 4): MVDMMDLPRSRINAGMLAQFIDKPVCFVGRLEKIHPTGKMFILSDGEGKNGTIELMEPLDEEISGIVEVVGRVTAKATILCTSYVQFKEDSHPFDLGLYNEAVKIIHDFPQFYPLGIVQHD
MEASURED_METRIC: Kd (nM)
Numbers only, in nM.

State the recorded Kd for this entry: TTAGGGTTAGGGTTAGGGTTAGGGTTAGGG (structured_DNA) [h-telG4 (FRET), five telomeric repeats]
75.9

All figures here come from paper PMC11551749.
